Hello, the source for this data is PubChem BioAssay AID1159580, in case you need it.

assay: chemical genetic growth profiling, strain panel (AID 1159580);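 note: tested at 20 µM; growth read once vehicle control cultures reached saturation at 30 °C; 1 = growth at the plate median or of vehicle wells; lower values mean less growth of the strain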; conditions: S. cerevisiae deletion strains, growth OD, locus YGR078C, strain PAC10, hits give low values
Out of some 5,500 compounds screened, about 2,000 (36%) were called active. Inconclusive results (about 18%) are left out. The list shows a part of the results. Where a SMILES comes first, the peptide text is derived from it.
readout label: normalized growth

* O=C(Nc1ccccc1)Nc1ccccc1 | 1.07
* N#Cc1cc2nc(O)c(O)nc2cc1[N+](=O)[O-] | 0.979
* O=S(=O)(Nc1ccc(Oc2ccc(Cl)cc2)cc1)c1ccccc1 | 0.901
* COC(=O)CCCOc1ccc(Cl)cc1Cl | 0.991
* Cc1ccc(S(=O)(=O)Nc2ccc(C)c([N+](=O)[O-])c2)cc1 | 0.986
* O=C(Nc1ccccc1)NC1CCCC1 | 1.01
* Cn1nccc1NS(=O)(=O)c1cccc(Cl)c1 | 1.02
* COc1cc(S(C)=O)ccc1-c1nc2ncccc2[nH]1 (configuration not stated) | 1.02
* Cc1cc(CN2CC(C)OC(C)C2)cc(C)c1O (configuration not stated) | 1.02
* O=C1Nc2ccc(I)cc2/C1=C/c1cc(Br)c(O)c(Br)c1 | 0.919
* NCC(CC(=O)O)c1ccc(Cl)cc1 (configuration not stated) | 1.01
* NC(N)=NCCC[C@@H](NC(=O)[C@@H](N)Cc1ccc(O)cc1)C(=O)O | 0.996
* CN(C)N=Nc1nc[nH]c1C(N)=O | 1
* N[C@@H]1[C@@H](O)[C@H](O)[C@@H](CO)O[C@H]1O | 1
* NCCCCC(N)C(=O)NC(Cc1ccc(O)cc1)C(=O)NC(CCCCN)C(=O)O (stereo not drawn) (H-Lys-Tyr-Lys-OH; configuration not given here) | 1.04
* NNC(=O)c1ccccc1O | 1.01
* N#Cc1csc([N+](=O)[O-])c1 | 0.86
* CC1CCN(CC[C@H]2CCCN2S(=O)(=O)c2cccc(O)c2)CC1 | 1.02
* CCCCSP(=O)(SCCCC)SCCCC | 1.02
* O=C(O)CCCOc1ccc(Cl)cc1Cl | 1.01
* O=C(Nc1ccccc1)c1ccccc1O | 0.94
* c1ccc2c(c1)CN1CCCC1=N2 | 1.01
* CCc1ccccc1NC(C)=O | 1
* Clc1ccc(OCCOc2ccc(Cl)cc2)cc1 | 1.02
* O=C(O)CCOc1ccc(Cl)cc1 | 0.753
* C[C@H](N)[C@H](O)c1ccccc1 | 1.01
* COc1ccc(C=C2C(=O)NC(=S)NC2=O)cc1Br | 0.995
